Where do these numbers come from? They come from patent US20090042905A1.

Could you please report measured change in vivo at 2 µmol/mouse for the items listed next?
- System: male C57BL/6J mice
- experiment-summary: Fasting-induced feeding behavior (food intake) of mice
- Format: in vivo
- condition-label: 20 min; oral dose 2 μmol per mouse, 30 min before food; read-out: change of food intake - compounds versus vehicle treated negative control, at 20 min
Reply numerically in %, unit not repeated.

Record summary for CC(C)(N)C(=O)N[C@H](Cc1c[nH]c2ccccc12)c1nnc(CCc2ccccc2)n1CCc1ccccc1 [Compound 117] : reported change in vivo at 2 µmol/mouse = -31

Record summary for COc1ccc(Cn2c(CCc3c[nH]c4ccccc34)nnc2[C@@H](Cc2c[nH]c3ccccc23)NC(=O)C2CCNCC2)c(OC)c1 [Compound 31] : reported change in vivo at 2 µmol/mouse = 50

Record summary for CC(C)(N)C(=O)N[C@H](Cc1c[nH]c2ccccc12)c1nnc(CCc2ccccc2)n1Cc1cccc2ccccc12 [Compound 27] : reported change in vivo at 2 µmol/mouse = -57

Record summary for CC(C)(N)C(=O)N[C@H](Cc1c[nH]c2ccccc12)c1nnc(CCc2c[nH]c3ccccc23)n1Cc1cccc2ccccc12 [Compound 5] : reported change in vivo at 2 µmol/mouse = -56

Record summary for CC(C)(N)C(=O)N[C@H](Cc1c[nH]c2ccccc12)c1nnc(CCCc2c[nH]c3ccccc23)n1Cc1cccc2ccccc12 [Compound 11] : reported change in vivo at 2 µmol/mouse = -56

Record summary for CC(C)(N)C(=O)N[C@H](Cc1c[nH]c2ccccc12)c1nnc(CCc2ccccc2)n1Cc1ccc(Cl)c(Cl)c1 [Compound 122] : reported change in vivo at 2 µmol/mouse = -52

Record summary for CC(C)(N)C(=O)N[C@H](Cc1c[nH]c2ccccc12)c1nnc(CCc2c[nH]c3ccccc23)n1Cc1ccc(Cl)c(Cl)c1 [Compound 28] : reported change in vivo at 2 µmol/mouse = -17

Record summary for COc1ccc(Cn2c(CCc3ccccc3)nnc2[C@@H](Cc2c[nH]c3ccccc23)NC(=O)CN)cc1 [Compound 50] : reported change in vivo at 2 µmol/mouse = -54

Record summary for COc1ccc(Cn2c(CCc3c[nH]c4ccccc34)nnc2[C@@H](Cc2c[nH]c3ccccc23)NC(=O)C2CCNCC2)cc1 [Compound 45] : reported change in vivo at 2 µmol/mouse = -36

Record summary for COc1ccc(Cn2c(CCc3ccccc3)nnc2[C@@H](Cc2c[nH]c3ccccc23)NC(=O)C(C)(C)N)c(OC)c1 [Compound 179] : reported change in vivo at 2 µmol/mouse = -25

Record summary for COc1ccc(Cn2c(CCc3ccccc3)nnc2[C@@H](Cc2c[nH]c3ccccc23)NC(=O)[C@@H]2CCCCN2)cc1 [Compound 48] : reported change in vivo at 2 µmol/mouse = -22

Record summary for O=C(N[C@H](Cc1c[nH]c2ccccc12)c1nnc(CCc2ccccc2)n1-c1ccccc1)C1CCNCC1 [Compound 142] : reported change in vivo at 2 µmol/mouse = -56

Record summary for CC(C)(N)C(=O)N[C@H](Cc1c[nH]c2ccccc12)c1nnc(Cc2ccccc2)n1Cc1ccc(Cl)c(Cl)c1 [Compound 118] : reported change in vivo at 2 µmol/mouse = -31

Record summary for COc1ccc(Cn2c(CCc3ccccc3)nnc2[C@@H](Cc2c[nH]c3ccccc23)NC(=O)C2CCNCC2)c(OC)c1 [Compound 62] : reported change in vivo at 2 µmol/mouse = 56

---

- Tested on: male C57BL/6J mice
- experiment-summary: Fasting-induced feeding behavior (food intake) of mice
- Assay type: in vivo
- condition-label: 1 h; oral dose 2 μmol per mouse, 30 min before food; read-out: change of food intake - compounds versus vehicle treated negative control, at 1 h
recorded-metric: change in vivo at 2 µmol/mouse (%)
Reply numerically in %, unit not repeated.

Record summary for CC(C)(N)C(=O)N[C@H](Cc1c[nH]c2ccccc12)c1nnc(CCc2ccccc2)n1Cc1ccc(Cl)c(Cl)c1 : reported change in vivo at 2 µmol/mouse = -42

Record summary for CC(C)(N)C(=O)N[C@H](Cc1c[nH]c2ccccc12)c1nnc(CCc2ccccc2)n1CCc1ccccc1 : reported change in vivo at 2 µmol/mouse = -24

Record summary for CC(C)(N)C(=O)N[C@H](Cc1c[nH]c2ccccc12)c1nnc(Cc2ccccc2)n1Cc1ccc(Cl)c(Cl)c1 : reported change in vivo at 2 µmol/mouse = -30

Record summary for COc1ccc(Cn2c(CCc3ccccc3)nnc2[C@@H](Cc2c[nH]c3ccccc23)NC(=O)[C@@H]2CCCCN2)cc1 : reported change in vivo at 2 µmol/mouse = -30
